test: soluble on expression in E. coli; label from the status in PepcDB or PDB records
Assay endpoint: soluble on expression in E. coli

[[record]]
ordered_residues = "MSLSKMAALITQEIGSFRKPEYLSMEFHKIEGTEKFKELAERATIDTLKIFENTGLDNVGIGGEMYRWEMYEHPAERIKGLIFYGMVRSFDNRYYRKGSVIDKIERRGSFHMDEVEFVAKSTKKPIKIPITGPYTMMDWSFNDHYNDRHELAMEFARIINEELKEIQSKWPYISNGRKLEIQIDEPATTTHPDEMDIVVDSVNKSIEGIDAELSLHVCYSRDYRLLYDRIPELNIDGYNLEYSNRDTTDLGVEDAKRPGFQDIKYFNEVNESLQRKKFIGVGVTDVHIDFIEPVKLIEDRIKYVLNIIKDPELVKLNPDCGLRTRSRSIGEQKLRNMVIAKNNVLKDISEGHHHHHH"
result_value = "not soluble"

[[record]]
ordered_residues = "MNQEFFMLSQAMVEHLNEQINLEFFSSNLYLQMSAWCEDKGFDGAAEFLRAHAVEEMQHMQRLFTYVSETGALPILGAIAAPRHDFASLGEVFRETYQHEQKITQQINKLAHVAFTSQDYSTFNFLQWYVAEQHEEEKLFKGILDKLELVGEDGKALFFIDKDLAALAKKGSSSVMDAPAE"
result_value = "not soluble"


====

assay: soluble on expression in E. coli; label from the status in PepcDB or PDB records
Assay endpoint: soluble on expression in E. coli

Consider the reported soluble on expression in E. coli for these sequences:
[[record]]
ordered_residues = "MTFAWGRGSHGGAGMRIVQITDTHFSPTKAHFNGNWAPLAAWIEQSGADLVIHTGDLSVDGADRDDDIAFCMDLMREISAPMLLVPGNHDVGHLPGSLQPVNAGRLERWRRLVGPDYWMEDAGSWRLIGLDSLLMGFDDAEEEAQFDWLRTVLESRGGRRVALFAHKPLFVDAPGEGDTGYWSVRPAQRQRLYDLIATHDVALFASGHLHRAWQGKYENTSLVWGPSAAFVVGDMERDMPGERLLGAVIHQFSDTVTSEIVAIPGMTAYVLDDVVAEVYPHEAHKARKRVASLEHHHHHH"
result_value = "not soluble"

[[record]]
ordered_residues = "MSELILHHYPTSLFAEKARLMLGFKGVNWRSVTIPSIMPKPDLTALTGGYRKTPVLQIGADIYCDTALMARRLEQEKASPAFYPQGQEFAVAGLAAWADSVLFLHAVSLVFQPESMAVRFAKVPPDAAKAFIADRSMLFNGGTASRPPVEQVKHQWPTFMSRLESQLSHGGDFLFGAPSIADFSVAHTLWFLKQTPVTAPFVDDYPSVSVWLDRVLGFGHGSLSDLSSAAAIEIASNATPAPLPDETFIDPNGFKAGDKVAIAAVDYGVEAVEGELMFTGREELILRREDNRAGVVHVHFPRLGFRVEKR"
result_value = "soluble"

[[record]]
ordered_residues = "MGSDKIHHHHHHMETTKLGNLKLYGAGHAAGGAYHNVSIKGEGIVGEGLSAVGCRIYGTGLFLGKAETERLRVLGESECKGDLTAGKINIYGTMKVSGSLQFDRFNLKGQTEIGGNMTGESCDVKGKLSVIGDCETEMFHVTGCVDVSGLLNSGEIKLGLSHDINHVQEIGGTTITVKRRASFFSRKKGKLIADVIEGDRVYLENTEAAVVRGKEVIIGPGCSIGTIEYEYKCECDPHSQIKEKTKL"
result_value = "not soluble"

[[record]]
ordered_residues = "MSLKMTNNTVLITGGSAGIGLELAKRLLELGNEVIICGRSEARLAEAKQQLPNIHTKQCDVADRSQREALYEWALKEYPNLNVLVNNAGIQKEIDFKKGTEELFVDGDEIELNFQAPVHLSALFTPHLMKQPEAAIVQVTSGLAFNPLAVYPVYCATKAALHSFSLTLRHHVRDTSVEVIEMAPPMVDTGLNQKSRDKQGLTYRGISSEEYVQYFLDGLKEGKQEITNERVEGLRDATRADYDRLFEQMNTQEGHHHHHH"
result_value = "soluble"

[[record]]
ordered_residues = "MDAIILQENIEGLLSLVRMLLPDGGSAGCVYLDDLSALQRSIHEKINDLYSQRGETPEQDATLCLAILQGYNVSMYANPEDEERKQAVLTRSLSLLDVLPPSLLKQQLSAVCYGMQELCEIN"
result_value = "not soluble"


Entry MEAIDQLVGQWQKDGLSPSQVAEKFSKCVLYVTCEPCIMCASALSFLGIKEVYYGCPNDKFGGCGSILSLHLGSEEAQRGKGYKCRGGIMAEEAVSLFKCFYEQGNPNAPKPHRPVVQRERT needs its soluble on expression in E. coli filled in; supply it.
soluble

Hey, just so you know, these numbers are from the DeepSol protein solubility set.
